Target: bacteriophage T4 DNA polymerase (Enterobacteria phage T4)
Construct: made in house
Test: Counter-screen against bacteriophage T4 DNA polymerase
Assay type: biochemical
Details: DRC-1; read at 130'; concentration 80
Reported Property: % inhibition T4 130' 80 (%)
Provide the reading as a plain figure in %.

Reference set (3 entries):
Cc1cc2[nH]c(C(=O)Nc3ccc(F)cc3)c(CN3CCOCC3)c2s1 [Molecule 60]
22.3923
O=C1CSC2=NC3=C(CCc4ccccc43)C(c3cccs3)N12 (stereo not shown) [Molecule 59, O=C1CSC2=NC3=C(C(N12)c1cccs1)CCc1c3cccc1]
16.7896
O=C(CCc1csc(NC(=O)Nc2ccccc2)n1)Nc1nc2ccccc2s1 [KU0177354]
30.1254

Look up % inhibition T4 130' 80 for this molecule: COc1ccc(C2CC(c3ccc(Cl)cc3Cl)Nc3nc(N)nn32)cc1OC (stereo not shown) [Molecule 43]
8.47

====

Molecular target: P. falciparum apicoplast DNA polymerase (Pf-apPOL) (Plasmodium falciparum)
Sequence (Q8ILY1 entry or part of it): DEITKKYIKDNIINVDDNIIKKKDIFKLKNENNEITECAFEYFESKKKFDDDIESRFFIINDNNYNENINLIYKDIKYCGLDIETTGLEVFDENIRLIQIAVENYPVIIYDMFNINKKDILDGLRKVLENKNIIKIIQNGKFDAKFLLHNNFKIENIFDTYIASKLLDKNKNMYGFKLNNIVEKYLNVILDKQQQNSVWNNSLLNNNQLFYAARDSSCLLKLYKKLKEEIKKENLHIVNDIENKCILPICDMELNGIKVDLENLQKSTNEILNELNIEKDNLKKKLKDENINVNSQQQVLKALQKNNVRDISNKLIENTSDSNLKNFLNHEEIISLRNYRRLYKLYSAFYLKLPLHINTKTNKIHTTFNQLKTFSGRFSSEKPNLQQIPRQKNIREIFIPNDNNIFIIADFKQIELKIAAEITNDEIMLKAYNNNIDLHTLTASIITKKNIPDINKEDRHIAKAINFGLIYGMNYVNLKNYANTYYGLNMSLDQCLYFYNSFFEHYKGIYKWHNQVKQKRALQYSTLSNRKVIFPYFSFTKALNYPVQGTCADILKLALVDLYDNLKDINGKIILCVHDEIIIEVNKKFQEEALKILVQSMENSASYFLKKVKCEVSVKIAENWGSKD
Assay: Fluorescence-based high-throughput DNA polymerase assay (molecular beacon), primary screen and dose-response
Format: biochemical
Conditions: DRC-2; 5'; concentration 5 (unit not given)
Entries and their % inhibition Apo pol 5' values follow.
Provide the reading as a plain figure in %.

O=C(Nc1c2c(nn1-c1ccc(Oc3ccccc3)cc1)CSC2)c1ccco1 [KU0055927]
12

Look up % inhibition Apo pol 5' for this compound: COc1ccc(-c2c(C(F)(F)F)nn3c(=O)cc(-c4cccc([N+](=O)[O-])c4)[nH]c23)cc1 [Molecule 16]
14

Look up % inhibition Apo pol 5' for this compound: COc1ccc2c(c1)C(c1ccccc1OC)CC(=O)O2 (stereo not drawn) [Molecule 38, COc1ccc2c(c1)C(CC(=O)O2)c1ccccc1OC]
27

Look up % inhibition Apo pol 5' for this compound: O=C(Cn1ccc2c(=O)[nH]ccc21)Nc1ccc(Cl)cc1 [Molecule 36, O=C(Cn1ccc2c1cc[nH]c2=O)Nc1ccc(cc1)Cl]
20

====

Target: UniProt Q8ILY1
Assay: Fluorescence-based high-throughput DNA polymerase assay (molecular beacon), primary screen and dose-response
Format: biochemical
Details: DRC-1; concentration 2.5; 10'
Reported Property: % inhibition Apo pol 10'
Give me the value, and tack the unit on after it.

Reference set (3 entries):
CCc1ccccc1NC(=O)c1ccc(-c2ncccc2NC(C)=O)cc1
16.2237%
O=[N+]([O-])c1ccc(SCc2ccco2)c2cccnc12
15.1764%
O=C(Cn1ccc2c(=O)[nH]ccc21)Nc1ccccc1Cl [Molecule 19, O=C(Cn1ccc2c1cc[nH]c2=O)Nc1ccccc1Cl]
11.0481%

Please state recorded % inhibition Apo pol 10' (tested on UniProt Q8ILY1) of O=C(O)c1cc([N+](=O)[O-])c(N2CCN(c3cccc(C(F)(F)F)c3)CC2)c([N+](=O)[O-])c1
9.057%

====

Target: bacteriophage T4 DNA polymerase (Enterobacteria phage T4)
Construct: made in house
Sequence (P04415 1-898): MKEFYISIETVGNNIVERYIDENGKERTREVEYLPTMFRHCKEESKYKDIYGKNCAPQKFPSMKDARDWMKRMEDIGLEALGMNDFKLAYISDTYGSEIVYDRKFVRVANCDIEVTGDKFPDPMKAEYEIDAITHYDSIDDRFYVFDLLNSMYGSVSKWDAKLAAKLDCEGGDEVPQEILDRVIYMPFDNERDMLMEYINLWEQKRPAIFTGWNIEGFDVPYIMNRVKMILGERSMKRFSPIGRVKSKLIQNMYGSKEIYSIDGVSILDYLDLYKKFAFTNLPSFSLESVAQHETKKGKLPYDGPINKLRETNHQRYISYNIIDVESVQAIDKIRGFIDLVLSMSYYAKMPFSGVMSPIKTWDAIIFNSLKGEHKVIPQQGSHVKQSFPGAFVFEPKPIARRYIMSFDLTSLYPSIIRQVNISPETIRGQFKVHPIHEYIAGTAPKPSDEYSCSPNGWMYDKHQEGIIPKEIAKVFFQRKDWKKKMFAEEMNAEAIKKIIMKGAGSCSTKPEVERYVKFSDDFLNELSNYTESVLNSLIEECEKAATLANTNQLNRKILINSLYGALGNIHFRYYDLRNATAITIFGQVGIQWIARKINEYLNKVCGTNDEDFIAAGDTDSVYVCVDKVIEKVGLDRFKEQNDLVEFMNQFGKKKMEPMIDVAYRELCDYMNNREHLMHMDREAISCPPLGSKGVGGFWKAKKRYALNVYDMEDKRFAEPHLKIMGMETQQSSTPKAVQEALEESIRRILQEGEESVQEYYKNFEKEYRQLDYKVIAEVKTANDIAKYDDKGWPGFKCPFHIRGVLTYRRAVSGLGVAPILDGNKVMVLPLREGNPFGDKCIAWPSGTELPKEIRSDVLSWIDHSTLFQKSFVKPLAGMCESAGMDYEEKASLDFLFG
Assay: Counter-screen against bacteriophage T4 DNA polymerase
Format: biochemical
Conditions: DRC-2; read at 40'; concentration 80
Reported Property: % inhibition T4 40' 80 (%)
Provide the reading as a plain figure in %.

C#CC(C=CC)OC(=O)c1ccccc1C(=O)O (stereo not drawn)
4.65
O=C1CSC2=NC3=C(CCc4ccccc43)C(c3cccs3)N12 (stereo not drawn)
11

# ---- query compound ----
Look up % inhibition T4 40' 80 for this compound: Nc1cc(Oc2ccc(O)c(N)c2)ccc1O
-1.54
